// values below are reported melting point
Recorded Metric: melting point

• COc1cccc(-c2nc3ccccc3s2)c1OCC(=O)NN=C1C(=O)Nc2ccc(Cl)cc21 = 263 to 265 °C
• COc1ccc(-c2nc3ccccc3s2)cc1OCC(=O)NN=C1C(=O)Nc2ccc(C)cc21 = 224 to 226 °C
• COc1cccc(-c2nc3ccccc3s2)c1OCC(=O)NN=C1C(=O)Nc2ccccc21 = 246 to 248 °C
• Cc1ccc2c(c1)C(=NNC(=O)COc1ccccc1-c1nc3ccccc3s1)C(=O)N2 = 251 to 253 °C

----------
// values below are reported melting point
Recorded Metric: melting point

• O=C(COc1ccccc1-c1nc2ccccc2s1)NN=C1C(=O)Nc2ccc(Br)cc21 = 261 to 263 °C
• O=C(COc1ccccc1-c1nc2ccccc2s1)NN=C1C(=O)Nc2ccccc21 = 238 to 240 °C
• COc1ccc(-c2nc3ccccc3s2)cc1OCC(=O)NN=C1C(=O)Nc2ccc(Br)cc21 = 271 to 273 °C
• COc1ccc(-c2nc3ccccc3s2)cc1OCC(=O)NN=C1C(=O)Nc2ccc([N+](=O)[O-])cc21 = 288 to 290 °C
• COc1ccc2c(c1)C(=NNC(=O)COc1ccccc1-c1nc3ccccc3s1)C(=O)N2 = 240 to 242 °C
• COc1cccc(-c2nc3ccccc3s2)c1OCC(=O)NN=C1C(=O)Nc2ccc(C)cc21 = 244 to 246 °C
• COc1cccc(-c2nc3ccccc3s2)c1OCC(=O)NN=C1C(=O)Nc2ccc(Br)cc21 = 266 to 268 °C
• COc1ccc2c(c1)C(=NNC(=O)COc1cc(-c3nc4ccccc4s3)ccc1OC)C(=O)N2 = 199 to 201 °C
• O=C(COc1ccccc1-c1nc2ccccc2s1)NN=C1C(=O)Nc2ccc(Cl)cc21 = 265 to 267 °C
• COc1ccc2c(c1)C(=NNC(=O)COc1c(OC)cccc1-c1nc3ccccc3s1)C(=O)N2 = 144 to 146 °C
• COc1ccc(-c2nc3ccccc3s2)cc1OCC(=O)NN=C1C(=O)Nc2ccccc21 = 192 to 194 °C
• O=C(COc1ccccc1-c1nc2ccccc2s1)NN=C1C(=O)Nc2ccc([N+](=O)[O-])cc21 = 275 to 277 °C
• COc1cccc(-c2nc3ccccc3s2)c1OCC(=O)NN=C1C(=O)Nc2ccc([N+](=O)[O-])cc21 = 276 to 278 °C
• COc1ccc(-c2nc3ccccc3s2)cc1OCC(=O)NN=C1C(=O)Nc2ccc(Cl)cc21 = 260 to 262 °C
